Listed next: entries and their corresponding IC50.
- Measured target: hERG K+ channel (Homo sapiens, UniProt Q12809)
- Sequence (Q12809 whole entry): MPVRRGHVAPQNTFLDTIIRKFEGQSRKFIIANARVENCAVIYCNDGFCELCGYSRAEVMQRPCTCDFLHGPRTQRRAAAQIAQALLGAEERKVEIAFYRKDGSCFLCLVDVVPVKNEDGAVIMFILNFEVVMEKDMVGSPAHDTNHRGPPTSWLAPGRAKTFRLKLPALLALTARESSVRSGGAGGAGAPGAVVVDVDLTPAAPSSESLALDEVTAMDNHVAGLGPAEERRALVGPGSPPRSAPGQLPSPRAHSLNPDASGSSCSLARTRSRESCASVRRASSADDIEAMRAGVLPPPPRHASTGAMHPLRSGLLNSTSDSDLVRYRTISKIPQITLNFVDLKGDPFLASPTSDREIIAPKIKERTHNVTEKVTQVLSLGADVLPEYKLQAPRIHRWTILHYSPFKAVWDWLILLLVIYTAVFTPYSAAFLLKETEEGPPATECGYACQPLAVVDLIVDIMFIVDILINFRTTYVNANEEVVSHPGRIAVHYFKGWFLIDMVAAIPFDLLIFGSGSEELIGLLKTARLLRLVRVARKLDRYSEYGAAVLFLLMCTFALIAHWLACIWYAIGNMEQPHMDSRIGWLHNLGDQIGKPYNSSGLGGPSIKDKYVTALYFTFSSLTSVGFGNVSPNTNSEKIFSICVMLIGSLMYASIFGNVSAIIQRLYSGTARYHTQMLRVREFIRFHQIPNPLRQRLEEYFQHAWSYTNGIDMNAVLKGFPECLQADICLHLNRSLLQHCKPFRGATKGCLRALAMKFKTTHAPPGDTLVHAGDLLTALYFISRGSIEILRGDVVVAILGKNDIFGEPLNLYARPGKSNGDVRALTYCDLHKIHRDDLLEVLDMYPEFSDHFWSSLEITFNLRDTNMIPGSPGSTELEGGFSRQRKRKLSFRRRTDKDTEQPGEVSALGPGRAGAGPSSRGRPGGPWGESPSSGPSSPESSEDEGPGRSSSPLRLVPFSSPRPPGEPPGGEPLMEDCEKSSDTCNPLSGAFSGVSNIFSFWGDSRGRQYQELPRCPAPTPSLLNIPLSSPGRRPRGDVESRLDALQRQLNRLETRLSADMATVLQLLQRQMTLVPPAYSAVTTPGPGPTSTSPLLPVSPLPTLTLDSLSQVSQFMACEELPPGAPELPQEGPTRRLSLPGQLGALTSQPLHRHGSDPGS
- Measurement notes: hERG K+ Channel Block
- Assay type: cell-based
The answer is to be given in µM; state only the numeric part.

Would you please look over these solved cases?
>>> df
                        structure_as_smiles                           measured_target  measurement_name  measurement
0  CC(C)(NC(=O)CN1CCC(CNC(=O)c2cccc(Cl)c2)CC1)C(F)(F)F  hERG K+ channel (Homo sapiens, UniProt Q12809)              IC50          6.9
1  COc1cc(F)cc(C(=O)NCC2CCN(CCNC(=O)C(C)(C)C(F)(F)F)CC2)c1  hERG K+ channel (Homo sapiens, UniProt Q12809)              IC50         10.9

Query compound follows.
Incoming: For the compound shown here, NC1(CN2CCC(CC(=O)Nc3cc(C(F)(F)F)cc(C(F)(F)F)c3)CC2)CCCC1 , give the reported IC50.
Outgoing: 1.3
